Target: T1, human IL-4Rα (human, UniProt P24394 26-232)
T1 construct: also called Hu IL-4Rα; hIL-4Rα
T1 sequence: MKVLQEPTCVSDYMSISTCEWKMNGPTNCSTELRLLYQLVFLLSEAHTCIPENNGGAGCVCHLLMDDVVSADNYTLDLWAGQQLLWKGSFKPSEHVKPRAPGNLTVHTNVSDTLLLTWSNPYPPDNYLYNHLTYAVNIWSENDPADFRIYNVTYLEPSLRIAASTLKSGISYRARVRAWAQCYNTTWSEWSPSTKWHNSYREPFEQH
Assay: SPR, Carterra LSA;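 note: antibodies captured on an anti-human Fc sensor chip, antigen injected at several concentrations, association and dissociation rates fitted with a 1:1 Langmuir model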
I'd appreciate it if you marked entries Criterion met when KD Relative to Dupilumab is lower than 0.8 and Criterion not met when it is not.

BINDER: Construct 39 (mAb473) (antibody, IgG4, V domains shown, VH/VL only) VH: EVQLVESGGGLEQPGGSLRLSCAGSGFTFRDSAMTWVRQAPGKGLEWVSSISGSGDNTYYADSVKGRFTISRDNSKNTLYLQMNSLRAEDTAVYYCAKDRLSITVRPRYYGLDVWGQGTTVTVSS VL: DIVMTQSPLSLPVTPGEPASISCRSSQSLLYSIGKNYVDWYLQKSGQSPQLLIYLGNKRASGVPDRFSGSGSGTDFTLKISRVEAEDVGFYYCMQALGSPYTFGQGTKLEIK
CLASS NAME: Criterion not met
//
BINDER: Construct 9 (mAb418) (antibody, IgG4, V domains shown, VH/VL only) VH: EVQLVESGGGLEQPGGSLRLSCAGSGFTFTDFAMTWVRQAPGKGLEWVSSISGSGGNIYYADSVKGRFTISRDNSKNTLYLQMNSLRAEDTAVYYCAKDRLSVTVRPRYYGLDVWGQGTTVTVSS VL: DIVMTQSPLSLPVTPGEPASISCRSSQSLLYSIGKNYVDWYLQKSGQSPQLLIYLGNNRATGVPDRFSGSGSGTDFTLKISRVEAEDVGFYYCMQALGSPYTFGQGTKLEIK
CLASS NAME: Criterion met
//
BINDER: Construct 18 (mAb426) (antibody, IgG4, V domains shown, VH/VL only) VH: EVQLVESGGGLEQPGGSLRLSCAGSGFTFRDFAMTWVRQAPGKGLEWVSSISGSGDNTYYADSVKGRFTISRDNSKNTLYLQMNSLRAEDTAVYYCAKDRLSKTIRPRYYGLDVWGQGTTVTVSS VL: DIVMTQSPLSLPVTPGEPASISCTSSQSLLYSIGKNYVDWYLQKSGQSPQLLIYLGNKRASGVPDRFSGSGSGTDFTLKISRVEAEDVGFYYCMQSLTSPYTFGQGTKLEIK
CLASS NAME: Criterion not met
//
BINDER: Construct 5 (mAb414) (antibody, IgG4, V domains shown, VH/VL only) VH: EVQLVESGGGLEQPGGSLRLSCAGSGFTFRDFAMTWVRQAPGKGLEWVSSISGSGDNIYYADSVKGRFTISRDNSKNTLYLQMNSLRAEDTAVYYCAKDRVSITIRPRYYGLDVWGQGTTVTVSS VL: DIVMTQSPLSLPVTPGEPASISCRSSQSLLYSIGKNYVDWYLQKSGQSPQLLIYLGNKRASGVPDRFSGSGSGTDFTLKISRVEAEDVGFYYCMQSLQTPYVFGQGTKLEIK
CLASS NAME: Criterion not met
//
BINDER: Construct 31 (mAb443) (antibody, IgG4, V domains shown, VH/VL only) VH: EVQLVESGGGLEQPGGSLRLSCAGSGFTFRDFAMTWVRQAPGKGLEWVSSISGSGGNIYYADSVKGRFTISRDNSKNTLYLQMNSLRAEDTAVYYCAKDRLSVTVRPRYYGLDVWGQGTTVTVSS VL: DIVMTQSPLSLPVTPGEPASISCRSSQSLLYSNGYNYLDWYLQKSGQSPQLLIYLGSNRASGVPDRFSGSGSGTDFTLKISRVEAEDVGFYYCMQALQAPYTFGQGTKLEIK
CLASS NAME: Criterion met
//
BINDER: Construct 15 (mAb423) (antibody, IgG4, V domains shown, VH/VL only) VH: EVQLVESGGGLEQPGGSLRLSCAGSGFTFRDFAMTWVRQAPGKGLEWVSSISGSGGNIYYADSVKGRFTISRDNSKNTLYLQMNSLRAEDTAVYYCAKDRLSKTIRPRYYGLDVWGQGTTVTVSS VL: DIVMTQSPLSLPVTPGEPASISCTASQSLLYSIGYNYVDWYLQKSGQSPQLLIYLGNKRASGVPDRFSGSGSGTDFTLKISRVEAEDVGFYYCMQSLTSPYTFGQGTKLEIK
CLASS NAME: Criterion not met
//
BINDER: Construct 43 (mAb482) (antibody, IgG4, V domains shown, VH/VL only) VH: EVQLVESGGGLEQPGGSLRLSCAGSGFTFRDFAMTWVRQAPGKGLEWVSSISGGGGNTYYADSVKGRFTISRDNSKNTLYLQMNSLRAEDTAVYYCAKDRLSIAVRPRYYGLDVWGQGTTVTVSS VL: DIVMTQSPLSLPVTPGEPASISCTSSQSLLYSIGYNYVDWYLQKSGQSPQLLIYLGSKRASGVPDRFSGSGSGTDFTLKISRVEAEDVGFYYCMQSLTSPYTFGQGTKLEIK
CLASS NAME: Criterion not met
//
BINDER: Construct 28 (mAb436) (antibody, IgG4, V domains shown, VH/VL only) VH: EVQLVESGGGLEQPGGSLRLSCAGSGFTFRDFAMTWVRQAPGKGLEWVSSVSGSGGNTYYADSVKGRFTISRDNSKNTLYLQMNSLRAEDTAVYYCAKDRLSVTVRPRYYGLDVWGQGTTVTVSS VL: DIVMTQSPLSLPVTPGEPASISCTSSQSLLYSIGYNYVDWYLQKSGQSPQLLIYLGNKRASGVPDRFSGSGSGTDFTLKISRVEAEDVGFYYCMQSLQTPYTFGQGTKLEIK
CLASS NAME: Criterion met
//
BINDER: Construct 34 (mAb459) (antibody, IgG4, V domains shown, VH/VL only) VH: EVQLVESGGGLEQPGGSLRLSCAGSGFTFRDFAMTWVRQAPGKGLEWVSSISGSGDNIYYADSVKGRFTISRDNSKNTLYLQMNSLRAEDTAVYYCAKDRLSKTIRPRYYGLDVWGQGTTVTVSS VL: DIVMTQSPLSLPVTPGEPASISCRSSQGLLYSIGYNYVDWYLQKSGQSPQLLIYLGNKRASGVPDRFSGSGSGTDFTLKISRVEAEDVGFYYCMQALDTPYTFGQGTKLEIK
CLASS NAME: Criterion not met
//
BINDER: Construct 10 (mAb419) (antibody, IgG4, V domains shown, VH/VL only) VH: EVQLVESGGGLEQPGGSLRLSCAGSGFTFRDFAMTWVRQAPGKGLEWVSSISGDGSNTYYADSVKGRFTISRDNSKNTLYLQMNSLRAEDTAVYYCAKDRLSKTIRPRYYGLDVWGQGTTVTVSS VL: DIVMTQSPLSLPVTPGEPASISCRSSQSLLYSIGYNYVDWYLQKSGQSPQLLIYLGNKRASGVPDRFSGSGSGTDFTLKISRVEAEDVGFYYCMQALGSPYTFGQGTKLEIK
CLASS NAME: Criterion not met

Data provenance: patent US20260193366A1
